Data credit: the supplement of paper PMC4466140

- SYSTEM UNDER TEST: AgLsb1
- ASSAY EXPLANATION: SPOT peptide array binding signal intensity (averaged, normalized) (arbitrary units (background-subtracted, floor 0; scale differs between SH3 domains)); higher = stronger binding of the SH3 domain to the peptide
ASSAY READOUT: SPOT peptide array binding signal intensity

# BINDER, READING QUALIFIER, TEST RESULT
measured = [
    ("NFKRLLPRDPSEKSS", "=", 2.5),
    ("TSIEIPKRSPLRFTS", "≤", 0),
    ("SSSSSPPPLPTRRDH", "=", 180),
    ("RTIRKLPLMSLSEYF", "≤", 0),
    ("QPWTDQFEKLEKEVS", "≤", 0),
    ("LKQRFFLMFPKSIIW", "=", 0.5),
    ("MFLISPPASPPPEFD", "≤", 0),
]
